- System: MALME-3M melanoma
- method-summary: NCI tumour cell line growth inhibition, 48 h
Catalogue of compounds with associated TGI
measured-parameter: TGI

>>> measured_value("Nc1ccn([C@@H]2S[C@H](CO)[C@@H](O)[C@@H]2F)c(=O)n1")
"> 100 µM"
>>> measured_value("O=C(Nc1cccc(-n2cc(-c3ccncc3)c(-c3ccc(O)c(Cl)c3)n2)c1)Nc1ccc(Cl)c(Cl)c1")
"6.86 µM"
>>> measured_value("CCOC(=O)[C@@H]1C[C@@H]1c1ccc(O)c(O)c1")
"> 100 µM"
>>> measured_value("CC1(C)N=C(N)N=C(N)N1c1ccc(OCCCCNC(=O)Nc2cccc(S(=O)(=O)F)c2)c(Cl)c1")
"> 100 µM"
>>> measured_value("Cc1csc(CCC(N)C(=O)O)n1 (stereo not given)")
"> 100 µM"
>>> measured_value("O=S(=O)(O)c1ccc2c(N=Nc3c(O)ccc4ccccc34)cccc2c1")
"> 100 µM"
>>> measured_value("CC(C)CCCC(C)[C@H]1CCC2[C@@H]3CCC4Cc5nc6c(nc5C[C@]4(C)C3CC[C@@]21C)CC1CC[C@@H]2C(CC[C@@]3(C)C2CC[C@@H]3O)[C@@]1(C)C6 (stereo not given in full)")
"> 100 µM"
>>> measured_value("CC(C)c1cc(C(C)C)c(Cl)c(Cl)c1O (tested in a mixture with another compound)")
"52.9 µM"
>>> measured_value("CN(c1ccc(NC(=O)NCCN2CCOCC2)cc1)c1ccnc(Nc2ccc(CS(C)(=O)=O)cc2)n1")
"> 25 µM"
>>> measured_value("Cc1cc(C)c(S(=O)(=O)N(CCCN)OCCCN)c(C)c1")
"> 100 µM"
>>> measured_value("Cc1ccc(C=C(C(=O)O)C(=O)O)o1")
"> 100 µM"
>>> measured_value("CCN(CCCl)c1cc(CN(C)C)cc(NC(=O)c2cc(C(=O)Nc3cc(CN(C)C)cc(N(CC)CCCl)c3)n(C)n2)c1")
"2.86 µM"
>>> measured_value("CN1CCOCCOCCOc2ccccc2NC(=O)c2nc(cnc2N)-c2ccc(cc2)S1(=O)=O")
"> 100 µM"
>>> measured_value("CCOC(=O)c1cc2cc(OCc3ccccc3)ccc2[nH]1")
"> 100 µM"
>>> measured_value("CCOC(=O)[C@H]1Nc2c(cccc2[N+](=O)[O-])C2c3ccccc3CC21 (stereo not given in full)")
"> 100 µM"
>>> measured_value("O=CC(O)C(O)C(OC1OC(CO)C(O)C(O)C1O)C(O)CO (stereo not given) (tested in a mixture with another compound)")
"> 100 µM"
>>> measured_value("NCC(Cc1ccccc1)P(=O)(O)O (stereo not given)")
"> 100 µM"
>>> measured_value("CC(C)=NNc1ncnc2nc[nH]c12")
"> 100 µM"
>>> measured_value("COc1cc2c3c(n(CCCN4CCSCC4)c(=O)c2cc1OC)-c1cc2c(cc1C3=O)OCO2")
"> 100 µM"
>>> measured_value("CC1=NN(C(=O)c2ccc(C)cc2)C(=O)C1N=Nc1ccccc1C(=O)O (stereo not given)")
"> 100 µM"
